Target: WEE1 (Homo sapiens, UniProt P30291+Q96SW2)
Construct: C-terminal ePL-tagged (DiscoverX, Fremont, CA) full-length WEE1 expression construct; expressed in transfected cells; host or cells: LentiX-HEK293T (Invitrogen), lentivirally transduced; the cells also over-express GSPT1-GN
Sequence (P30291 whole entry): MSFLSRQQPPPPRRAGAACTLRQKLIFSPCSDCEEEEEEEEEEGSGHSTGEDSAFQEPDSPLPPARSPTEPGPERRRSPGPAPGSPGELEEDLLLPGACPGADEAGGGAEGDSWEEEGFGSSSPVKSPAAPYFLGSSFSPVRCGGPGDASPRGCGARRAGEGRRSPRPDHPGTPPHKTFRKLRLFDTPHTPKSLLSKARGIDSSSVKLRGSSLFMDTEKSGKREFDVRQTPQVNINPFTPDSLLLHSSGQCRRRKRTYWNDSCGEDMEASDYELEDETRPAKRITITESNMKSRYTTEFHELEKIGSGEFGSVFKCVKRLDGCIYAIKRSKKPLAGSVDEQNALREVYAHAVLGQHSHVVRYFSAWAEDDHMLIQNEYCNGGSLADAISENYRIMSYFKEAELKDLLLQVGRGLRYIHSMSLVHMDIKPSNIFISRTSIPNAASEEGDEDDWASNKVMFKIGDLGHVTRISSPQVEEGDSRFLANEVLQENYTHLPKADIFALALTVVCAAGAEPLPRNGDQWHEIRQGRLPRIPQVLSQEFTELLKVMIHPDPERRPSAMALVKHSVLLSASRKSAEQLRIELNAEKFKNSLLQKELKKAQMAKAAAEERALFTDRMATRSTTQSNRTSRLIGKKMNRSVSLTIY
Sequence (Q96SW2 whole entry): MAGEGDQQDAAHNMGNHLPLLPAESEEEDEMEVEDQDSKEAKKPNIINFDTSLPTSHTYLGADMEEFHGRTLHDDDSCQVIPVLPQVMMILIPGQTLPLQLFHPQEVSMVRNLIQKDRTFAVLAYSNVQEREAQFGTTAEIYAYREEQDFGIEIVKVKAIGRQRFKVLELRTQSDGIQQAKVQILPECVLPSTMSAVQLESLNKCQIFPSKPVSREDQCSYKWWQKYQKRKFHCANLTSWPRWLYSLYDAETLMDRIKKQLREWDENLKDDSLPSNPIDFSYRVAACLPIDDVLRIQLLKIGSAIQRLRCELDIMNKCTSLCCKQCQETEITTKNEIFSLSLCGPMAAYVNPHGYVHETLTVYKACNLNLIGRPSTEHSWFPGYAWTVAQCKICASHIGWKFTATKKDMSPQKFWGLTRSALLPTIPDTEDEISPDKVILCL
Sequence (Q16531 whole entry partner): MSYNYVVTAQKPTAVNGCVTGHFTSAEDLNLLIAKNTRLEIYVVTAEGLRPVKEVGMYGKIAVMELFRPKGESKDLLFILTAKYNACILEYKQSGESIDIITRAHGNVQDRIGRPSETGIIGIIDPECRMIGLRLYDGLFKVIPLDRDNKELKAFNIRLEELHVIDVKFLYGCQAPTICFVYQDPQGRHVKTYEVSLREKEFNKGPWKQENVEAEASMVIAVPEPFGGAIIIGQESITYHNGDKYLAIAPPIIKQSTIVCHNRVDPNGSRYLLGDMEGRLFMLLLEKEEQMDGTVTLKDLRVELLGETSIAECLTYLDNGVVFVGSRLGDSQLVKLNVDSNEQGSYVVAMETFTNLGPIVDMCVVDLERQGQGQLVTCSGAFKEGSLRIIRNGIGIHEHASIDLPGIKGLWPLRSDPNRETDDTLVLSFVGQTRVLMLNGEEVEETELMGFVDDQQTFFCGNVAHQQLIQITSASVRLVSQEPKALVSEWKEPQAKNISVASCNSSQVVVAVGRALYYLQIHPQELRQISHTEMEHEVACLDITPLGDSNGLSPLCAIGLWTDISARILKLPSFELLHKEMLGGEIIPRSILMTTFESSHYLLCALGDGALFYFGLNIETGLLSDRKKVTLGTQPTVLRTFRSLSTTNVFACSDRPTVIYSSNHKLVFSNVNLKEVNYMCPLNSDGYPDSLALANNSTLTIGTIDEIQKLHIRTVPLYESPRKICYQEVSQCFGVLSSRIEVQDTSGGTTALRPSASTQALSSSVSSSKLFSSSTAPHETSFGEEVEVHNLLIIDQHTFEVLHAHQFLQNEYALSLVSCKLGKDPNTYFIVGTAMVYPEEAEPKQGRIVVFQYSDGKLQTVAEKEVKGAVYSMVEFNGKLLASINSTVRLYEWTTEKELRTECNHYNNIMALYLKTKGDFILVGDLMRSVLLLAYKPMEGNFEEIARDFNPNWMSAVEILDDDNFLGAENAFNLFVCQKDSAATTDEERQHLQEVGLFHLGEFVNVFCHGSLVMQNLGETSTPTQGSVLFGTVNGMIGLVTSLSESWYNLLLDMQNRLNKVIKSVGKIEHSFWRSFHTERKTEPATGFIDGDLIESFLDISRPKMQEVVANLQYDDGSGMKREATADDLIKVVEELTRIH
Assay: WEE1-ePL degradation assay (293T-LentiX, InCELL Hunter luminescence, 4 hr)
Type: cell-based
Settings: LentiX-HEK293T cells expressing WEE1-ePL, 4 hr incubation; read-out: 293T-LentiX WEE1-ePL Degradation 4 hr EC50
From the text: To generate LentiX-WEE1-ePL-GSPT1-ND cells for the WEE1 degradation assay, LentiX-HEK293T (Invitrogen) were tranduced by lentivirus with a C-terminal ePL-tagged (DiscoverX, Fremont, CA) full-length WEE1 expression construct. A separate lentiviral construct was introduced to over-express a mutated form of GSPT1 (NP_002085), termed GSPT1-GN, which contains a G575N mutation and is further truncated in the first 158 amino acids. GSPT1-GN is functional but not degradable by Cereblon. […]
Parameter DC50: see the listing below.
State the value with its unit after it.

{"columns": ["Compound", "DC50"],
 "data": [
  ["COC[C@@H]1CN(Cc2cc(F)c3nc(C4CCCN4C)ccc3c2)C[C@H]1Oc1ccc2c(c1)CN([C@H]1CCC(=O)NC1=O)C2=O (relative stereo)", "3 nM"],
  ["COC[C@@H]1CN(Cc2ccc3cc(N4CCOCC4)cnc3c2)C[C@H]1Oc1ccc2c(c1)CN([C@H]1CCC(=O)NC1=O)C2=O", "3 nM"],
  ["COC[C@@H]1CN(Cc2ccc3nc(C4CCN(C5CN(C)C5)CC4)ccc3c2)C[C@H]1Oc1ccc2c(c1)CN([C@H]1CCC(=O)NC1=O)C2=O", "2 nM"],
  ["COC[C@@H]1CN(Cc2cc(F)c3nc(C4CCN(C(C)=O)C4)ccc3c2)C[C@H]1Oc1ccc2c(c1)CN([C@H]1CCC(=O)NC1=O)C2=O (relative stereo)", "1 nM"]
]}

Next compound, DC50 to be filled in.
I'm curious: which DC50 was measured for CC(C)(C)C[C@H]1CN(Cc2cc(F)c3nc(C4CCOCC4)ccc3c2)C[C@@H]1Oc1ccc2c(c1)CN([C@H]1CCC(=O)NC1=O)C2=O (relative stereo) tested on WEE1 (Homo sapiens, UniProt P30291+Q96SW2)?
10 nM
